Molecular target: T1, P6mS
T1 chain: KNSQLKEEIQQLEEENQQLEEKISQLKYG
Experiment: two-hybrid library CC1;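 note: natural log of median RNA to DNA barcode read ratio; higher means stronger binding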
Conditions: mean of both orientations
interaction score listing for selected binders.
Form rule: numeric answer, no unit written next to it.

{"binder": "SPEDKNAALKEEIQALEEENQALEEKIAQLKYG [P6]", "interaction score": -2.76}

For the next question, use this binder.
May I ask what interaction score has been recorded for SPEDEIQQLEEEIAQLEQKNAALKEKNQALKYG [P3] ?
-2.79

Data origin, for the record: paper PMC10397247
